System: Trichomonas vaginalis
protocol.summary: In vitro activity against T. vaginalis (IC50 determination)
Type: cell-based
particulars: 24 hr, 37° C., aerobic, Modified Diamonds Medium, 1×10^4 trichomonads cm^-3, read-out: IC50 24 hr
attribute.measured: IC50 (µg/mL)

The examples below pair each entry with its known result.
C=CCCOc1ccc2c(c1)CCN=C2C=Cc1ccc(Cl)cc1 : 2.2
C/C=C/C=C/C1=NCCc2cc(OCc3ccccc3)ccc21 : 3.6

[A] CC(C)COc1ccc2c(c1)CCN=C2/C=C/C1CCCCC1
[B] CCCCCCOc1ccc2c(c1)CCN=C2C=Cc1ccccc1
[C] Clc1ccc(C=CC2=NCCc3c2ccc(OCc2ccccc2)c3OCc2ccccc2)cc1
[D] CCCCOc1ccc2c(c1)CCN=C2/C=C/c1cccs1
Qu. Reorder: IC50, max to min. Answer by listing the labels in the order asked for.
Ans. A, B, D, C

###

Test system: Trichomonas vaginalis
protocol.summary: In vitro activity against T. vaginalis (IC50 determination)
Type: cell-based
particulars: 24 hr, 37° C., aerobic, Modified Diamonds Medium, 1×10^4 trichomonads cm^-3, read-out: IC50 24 hr
attribute.measured: IC50 (µg/mL)

[1] CCCCOc1ccc2c(c1)CCN=C2C=Cc1ccc(-c2ccccc2)cc1 [Example 24]
[2] CCCOc1ccc2c(c1)CCN=C2/C=C/c1ccc([N+](=O)[O-])o1 [Example 113]
[3] Brc1csc(/C=C/C2=NCCc3cc(OCc4ccccc4)ccc32)c1 [Example 108]
Qu. Sort key = IC50. Sort direction = ascending. Apply to the list above. Answer by listing the labels in the order asked for.
Ans. 2, 1, 3

[A] CCCCOc1ccc2c(c1)CCN=C2/C(Cl)=C/c1ccccc1 [Example 150]
[B] CC(C)(C)c1ccc(Oc2ccc3c(c2)CCN=C3C=Cc2ccc(Cl)cc2Cl)cc1 [Example 71]
Qu. From the items above, decide which of A and B has the lower IC50 reading. Provide the label of your selected option as the answer.
Ans. A
(A: 0.2 µg/mL, B: 0.8 µg/mL)

###

Tested on: Trichomonas vaginalis
protocol.summary: In vitro activity against T. vaginalis (IC50 determination)
Format: cell-based
particulars: 48 hr, 37° C., aerobic, Modified Diamonds Medium, 1×10^4 trichomonads cm^-3, read-out: IC50 48 hr
attribute.measured: IC50 (µg/mL)

The examples below pair each entry with its known result.
CCCCOc1ccc2c(c1)CCN=C2/C=C/C1CCCCC1 [Example 1] : 1.8
CCCCCCOc1ccc2c(c1)CCN=C2C=Cc1ccccc1 [Example 74] : 0.9
CC=CC1=NCCc2cc(OCCC)ccc21 [Example 137] : 1.7
N#Cc1ccc(C=CC2=NCCc3cc(OCc4ccccc4)ccc32)cc1 [Example 52] : 3.2

[1] CCCCOc1ccc2c(c1)CCN=C2/C=C/c1cccc2ccccc12 [Example 135]
[2] CCCCOc1ccc2c(c1)CCN=C2C=Cc1ccc(OC)cc1OC [Example 14]
Qu. Between 1 and 2 , whose recorded IC50 is greater? Provide the label of your selected option as the answer.
Ans. 2

[P] C(/C=C/c1ccccc1)=C\C1=NCCc2cc(OCc3ccccc3)ccc21 [Example 126]
[Q] CCCCOc1ccc2c(c1)CCN=C2C=Cc1ccccc1 [Example 3]
Qu. Between P and Q , whose recorded IC50 is greater? Provide the label of your selected option as the answer.
Ans. Q
(Q: 8.8 µg/mL, P: 1.7 µg/mL)
